Assay: Antioxidant activity assessed as DPPH free radical scavenging activity incubated at 37 degC for 30 mins by microtiter plate reader based method
Type: physicochemical
For each of the compounds below, state its IC50.
One number for each entry, in µM.

Cc1cccc2nc(-c3ccc(C(=O)N/N=C/c4ccccn4)cc3)[nH]c12 = 94.3
Cc1cccc2nc(-c3ccc(C(=O)N/N=C/c4ccc(F)cc4)cc3)[nH]c12 = 90.2
COc1ccc(/C=N/NC(=O)c2ccc(-c3nc4cccc(C)c4[nH]3)cc2)cc1OC = 120
COc1cccc(/C=N/NC(=O)c2ccc(-c3nc4cccc(C)c4[nH]3)cc2)c1 = 145

For each listed entry, give its IC50.
1. COc1ccc(/C=N/NC(=O)c2ccc(-c3nc4cccc(C)c4[nH]3)cc2)cc1
2. Cc1cccc2nc(-c3ccc(C(=O)N/N=C/c4cc(O)cc(O)c4)cc3)[nH]c12

Key:
[140, 17.3]

For each listed entry, give its IC50.
1. Cc1cccc2nc(-c3ccc(C(=O)N/N=C/c4ccc(Cl)cc4)cc3)[nH]c12
2. Cc1cccc2nc(-c3ccc(C(=O)N/N=C/c4ccco4)cc3)[nH]c12
3. Cc1cccc2nc(-c3ccc(C(=O)N/N=C/c4cccc(O)c4)cc3)[nH]c12
4. Cc1ccccc1/C=N/NC(=O)c1ccc(-c2nc3cccc(C)c3[nH]2)cc1
5. Cc1cccc2nc(-c3ccc(C(=O)N/N=C/c4cc(O)ccc4O)cc3)[nH]c12

Key:
120
180
60.2
158
18.5
